# TGI annotations
# System: TK-10 renal
# procedureText: NCI tumour cell line growth inhibition, 48 h
measuredProperty: TGI

compound	targetDesc	endpointValue
CN1CCC2(CC1)NC(=O)c1c(c3ccc(Cl)c(Cl)c3n1C)C2C#N (centres undefined)	TK-10 renal	23.4 µM
COc1cc2ncnc(Nc3cccc(Cl)c3F)c2cc1OC(=O)N1CCN(C)C[C@H]1C	TK-10 renal	20 µM
CC(=O)Nc1c(I)c(NC(C)=O)c(I)c(C(=O)O)c1I	TK-10 renal	> 100 µM
CC1=NNC(=O)C1C1CC(c2c[nH]c3ccccc23)=NN(C(N)=O)C1=O (centres undefined)	TK-10 renal	> 100 µM
O=C1[C@@H]2C(c3ccccc3[N+](=O)[O-])=[N+](c3ccccc3)O[C@@H]2C(=O)N1c1ccc(Cc2ccc(N3C(=O)[C@H]4C(c5ccccc5[N+](=O)[O-])=[N+](c5ccccc5)O[C@H]4C3=O)cc2)cc1	TK-10 renal	> 100 µM
C=C/C(C)=C\CC1[C@](C)(O)CC[C@H]2C(C)(C)C(O)CC[C@]12C (some centres undefined)	TK-10 renal	> 100 µM
CCOC(=O)C(C(=O)OCC)c1ccc([N+](=O)[O-])o1	TK-10 renal	30.8 µM
CC1CC/C(=C\c2ccc(N(C)C)cc2)C2=C1C(c1ccc(N(C)C)cc1)NC(=S)N2 (centres undefined)	TK-10 renal	> 100 µM
COC(=O)C1=C(OC(=O)c2ccccc2)C(C(=O)OC)[C@@]2(O)[C@@H](C(=O)OC)[C@H](C)C[C@@H]1[C@@H]2C(=O)OC (some centres undefined)	TK-10 renal	> 100 µM

====

# TGI annotations
# System: BT-549 breast
# procedureText: NCI tumour cell line growth inhibition, 48 h
measuredProperty: TGI (µM)

> print(dat)
                                   molecule  measuredproperty  limitoperator  endpointvalue
1  CCCc1cc(=O)n2c(C(=O)Nc3cccc(C(=O)OCC)c3)c(C(=O)Nc3ccc(F)cc3)sc2n1               TGI              >            140
2  O=C(NC(=O)c1ccccc1[N+](=O)[O-])Nc1ccc(Oc2ncc(Cl)cn2)c([N+](=O)[O-])c1               TGI              >            100
3          CCCCCCCCCCCC(=O)N1CCN(C(C)=O)CC1               TGI              =           58.1
4  COc1cc2oc(-c3ccc4c(c3)OCO4)c(OC)c(=O)c2c(OC)c1O               TGI              >            100
5  C=C1CCCC(C)(C)C1CCC1(C)CCC(C(C)C(=O)OC)OO1 (stereo not given)               TGI              =           9.97

====

# System: 786-0 renal
# procedureText: NCI tumour cell line growth inhibition, 48 h
measuredProperty: TGI

> print(dat)
                                    molecule  endpointvalue
 1  NC(=O)c1ncn(C2OC(CO)C(O)C2O)c1NC=O (centres undefined)       > 100 µM
 2  COc1cc2cc(C(=O)Nc3cc4n(n3)-c3ccccc3C4)[nH]c2c(OC)c1OC        17.8 µM
 3  O=C(O)C(C(=O)O)P(=S)(S)c1ccccc1 (centres undefined)       > 100 µM
 4  O=C(c1ccccc1)C(c1ccccc1)C1(O)C(=O)Nc2ccc([N+](=O)[O-])cc21 (centres undefined)       > 100 µM
 5  COc1cc(C2c3cc4c(cc3[C@H](NS(C)(=O)=O)C3COC(=O)[C@H]23)OCO4)cc(OC)c1OC (some centres undefined)       > 100 µM
 6                                 CONC(C)=O       > 100 µM
 7                 CNC(=O)NCCN1CC2CCC(CC2)C1        > 10 µM
 8  COc1cc2oc(-c3ccc4c(c3)OCO4)c(OC)c(=O)c2c(OC)c1O        43.9 µM
 9                     [Cl][Hg][c]1ccc(Cl)s1        2.61 µM
10  COc1ccc2c(O)c(/C=C3\N=Nc4ccccc43)oc2c1C[C@@H]1CCNC[C@H]1F        3.22 µM
11                  O=C(O)CCc1nc2ccccc2[nH]1       > 100 µM
12  Cc1nc(-c2nc(-c3ccc(OC(F)(F)F)cc3)no2)nn1Cc1cccc(N2CCC(S(C)(=O)=O)CC2)c1       > 100 µM
13  CC1(C)C2CC(O)C1CCC2=O (centres undefined)       > 100 µM
14  Cc1ccc(C(=O)Cn2c(C(=O)/C=C/c3cccs3)nc3ccccc32)cc1       > 100 µM

This collection of values is drawn from PubChem BioAssay (NCI).
